The measurements presented in this section are drawn from the supplement of paper PMC10567573.

B1: PTPRD (parent)
chain: LTKLREMGREKCHQYWPAERSARY

Variants of: B1
procedure.summary: protein stability index of a GFP-peptide fusion (GPS, HEK-293T) (PSI 1-6); higher = more stable;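 further: lentivirally expressed fusions sorted by FACS into six bins by GFP to DsRed ratio, PSI derived from sequencing read proportions per bin multiplied by bin number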
experimental.context: c terminus: a fixed tail appended
Entries annotated with measured protein stability index
measured.quantity: protein stability index

>>> assay_value("LTKLREMGRWKCHQYWPAERSARY [E10W]")
2.15
>>> assay_value("LTKLREMGRVKCHQYWPAERSARY [E10V]")
2.28
>>> assay_value("LTKLREMGREKCHQYWPVERSARY [A18V]")
2.26
>>> assay_value("YTKLREMGREKCHQYWPAERSARY [L1Y]")
2.21
>>> assay_value("LTKLRERGREKCHQYWPAERSARY [M7R]")
2.35
>>> assay_value("LTKLREMGREKCHQYWPAERRARY [S21R]")
2.16
>>> assay_value("LTKLREMGRSKCHQYWPAERSARY [E10S]")
2.3
>>> assay_value("LTKLRPMGREKCHQYWPAERSARY [E6P]")
2.33
>>> assay_value("LTKLREMGREKCHMYWPAERSARY [Q14M]")
2.04
>>> assay_value("LTKLREMGREKCHQTWPAERSARY [Y15T]")
2.82
>>> assay_value("LTKLREMGREKCHQYWYAERSARY [P17Y]")
2.17
>>> assay_value("LTKLREMGYEKCHQYWPAERSARY [R9Y]")
2.16
>>> assay_value("LHKLREMGREKCHQYWPAERSARY [T2H]")
2.25
>>> assay_value("LTKSREMGREKCHQYWPAERSARY [L4S]")
2.99
>>> assay_value("FTKLREMGREKCHQYWPAERSARY [L1F]")
1.97
>>> assay_value("LTKLREMGREKCHQYWPAERSATY [R23T]")
2.4
